Target: Induced myeloid leukemia cell differentiation protein Mcl-1 (Homo sapiens, UniProt Q07820)
Sequence (Q07820 whole entry): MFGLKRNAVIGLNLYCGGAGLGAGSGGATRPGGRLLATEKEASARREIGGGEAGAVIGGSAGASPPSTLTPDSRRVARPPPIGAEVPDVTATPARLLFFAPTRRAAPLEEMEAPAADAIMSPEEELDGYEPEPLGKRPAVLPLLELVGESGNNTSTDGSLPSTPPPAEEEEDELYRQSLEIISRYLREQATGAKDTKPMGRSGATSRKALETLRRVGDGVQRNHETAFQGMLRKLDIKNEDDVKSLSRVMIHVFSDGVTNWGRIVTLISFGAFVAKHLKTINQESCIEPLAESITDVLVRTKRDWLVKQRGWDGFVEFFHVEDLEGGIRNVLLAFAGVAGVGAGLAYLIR
Assay: Binding affinity to Mcl-1 (unknown origin) assessed as inhibition constant using 5-FAM-QEDIIRNIARHLAQVGDSMDRSIPPG as substrate
Measured endpoint: pKi
Give bare numbers, as −log10 of the molar value.

Ask: Checklist item: pKi tested on Induced myeloid leukemia cell differentiation protein Mcl-1 (Homo sapiens, UniProt Q07820), entry N#Cc1ccc(CN2Cc3c(cc(Br)c(OCc4ccc(-c5ccccc5)cc4)c3Br)C[C@H]2C(=O)NS(=O)(=O)c2ccc(Cl)c([N+](=O)[O-])c2)cc1 , value?
Result: 9.46

###

Biological target: Induced myeloid leukemia cell differentiation protein Mcl-1 (Homo sapiens, UniProt Q07820)
Test: Binding affinity to human Mcl-1 assessed as inhibition constant incubated for 15 mins by competition fluorescence polarization assay
Measured endpoint: Ki

Ask: Checklist item: Ki tested on Induced myeloid leukemia cell differentiation protein Mcl-1 (Homo sapiens, UniProt Q07820), entry CCN(CC)C[C@@H](O)CNc1ccc(NC[C@H]2CO2)c2c1C(=O)c1ccccc1C2=O , value?
Result: > 550 nM

###

Biological target: Apoptosis regulator Bcl-2 (Homo sapiens, UniProt P10415)
Sequence (P10415 whole entry): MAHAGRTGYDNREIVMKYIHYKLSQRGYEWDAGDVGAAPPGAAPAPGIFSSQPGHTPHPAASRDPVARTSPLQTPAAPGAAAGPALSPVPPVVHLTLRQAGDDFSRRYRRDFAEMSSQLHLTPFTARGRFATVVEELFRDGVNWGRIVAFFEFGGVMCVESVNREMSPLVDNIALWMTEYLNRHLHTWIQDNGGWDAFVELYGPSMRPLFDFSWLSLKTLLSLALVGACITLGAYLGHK
Measured endpoint: pIC50
Answers are plain numbers, as −log10 of the molar value.

Ask: Checklist item: pIC50 tested on Apoptosis regulator Bcl-2 (Homo sapiens, UniProt P10415), entry CN(CCO)CC[C@H](CSc1ccccc1)Nc1ccc(S(=O)(=O)NC(=O)c2ccc(N3CCC([C@@H](O)c4ccccc4-c4ccc(Cl)cc4)CC3)cc2)cc1S(=O)(=O)C(F)(F)F , value?
Result: 8.41

###

Target: Apoptosis regulator Bcl-2 (Homo sapiens)
Test: Binding affinity to Bcl-2 (unknown origin) assessed as inhibition constant using 5-FAM-QEDIIRNIARHLAQVGDSMDRSIPPG as substrate
Measured endpoint: pKi
Give bare numbers, as −log10 of the molar value.

Ask: Item N#Cc1ccc(CN2Cc3c(cc(Br)c(OCc4ccc(-c5ccccc5)cc4)c3Br)C[C@H]2C(=O)NS(=O)(=O)c2ccc(Cl)c([N+](=O)[O-])c2)cc1 has what recorded pKi?
Result: 9.35

###

Target: Bcl-2-like protein 1 (Homo sapiens)
Sequence (Q07817 whole entry): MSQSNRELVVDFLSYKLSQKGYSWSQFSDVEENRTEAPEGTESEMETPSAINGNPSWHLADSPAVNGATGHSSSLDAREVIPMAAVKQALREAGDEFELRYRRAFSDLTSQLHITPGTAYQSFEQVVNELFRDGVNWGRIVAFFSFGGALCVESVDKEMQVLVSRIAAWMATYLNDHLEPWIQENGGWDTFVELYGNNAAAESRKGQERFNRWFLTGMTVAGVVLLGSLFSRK
Assay: Binding affinity to Bcl-xL (unknown origin) assessed as inhibition constant by fluorescence polarization assay
Measured endpoint: Ki

Ask: Checklist item: Ki tested on Bcl-2-like protein 1 (Homo sapiens), entry Cc1c(S(C)(=O)=O)c(-c2cc(F)cc(N3CCN(c4ccc(NS(=O)(=O)c5ccc(N[C@H](CCN6CCC(O)CC6)CSc6ccccc6)c(S(=O)(=O)C(F)(F)F)c5)cc4)CC3)c2)c(-c2ccc(Cl)cc2)n1C(C)C , value?
Result: < 1 nM

###

Test: Solubility of the compound in aqueous buffer at physiological pH
Format: physicochemical
Measured endpoint: solubility

Ask: Item CN(CCO)CC[C@H](CSc1ccccc1)Nc1ccc(S(=O)(=O)NC(=O)c2ccc(N3CCC([C@@H](O)c4ccccc4-c4ccc(Cl)cc4)CC3)cc2)cc1S(=O)(=O)C(F)(F)F has what recorded solubility?
Result: < 1 µg/mL

###

Test: Cytotoxicity against human platelets assessed as cell growth inhibition incubated for 24 hrs
Assay type: toxicity, cell-based, Platelet
For each record, write down the corresponding IC50 at 24 h.
Give bare numbers, in nM.

Compound	Unit of measure	IC50 at 24 h
CN(C)CC#Cc1ccc(OCCCc2sc(N3CCc4cccc(C(=O)Nc5nc6ccccc6s5)c4C3)nc2C(=O)O)c(F)c1	nM	7.1

Now consider a different compound.
Ask: Item O=C1CCC(N2C(=O)c3cccc(NCCOCCOCc4cn(CCCC(=O)N5CCN(CC#Cc6ccc(OCCCc7sc(N8CCc9cccc(C(=O)Nc%10nc%11ccccc%11s%10)c9C8)nc7C(=O)O)c(F)c6)CC5)nn4)c3C2=O)C(=O)N1 (configuration not stated) has what recorded IC50 at 24 h?
Result: 1140

Cited source for all entries: ChEMBL document CHEMBL5107957
